ASSAYED TARGET: UniProt P10980
Sequence (P10980 whole entry): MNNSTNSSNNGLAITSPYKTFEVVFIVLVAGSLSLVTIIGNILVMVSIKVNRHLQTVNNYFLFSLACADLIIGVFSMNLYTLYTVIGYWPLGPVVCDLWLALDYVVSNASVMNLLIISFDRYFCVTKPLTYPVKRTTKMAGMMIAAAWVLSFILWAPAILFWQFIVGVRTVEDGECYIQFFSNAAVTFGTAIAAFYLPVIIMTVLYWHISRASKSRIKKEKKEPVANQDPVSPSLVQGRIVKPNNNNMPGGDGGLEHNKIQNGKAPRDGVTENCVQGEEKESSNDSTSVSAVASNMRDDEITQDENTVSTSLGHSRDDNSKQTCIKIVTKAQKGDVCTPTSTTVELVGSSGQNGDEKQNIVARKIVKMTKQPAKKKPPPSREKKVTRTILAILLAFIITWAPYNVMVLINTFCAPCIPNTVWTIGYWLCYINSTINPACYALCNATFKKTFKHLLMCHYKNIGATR
Field: Ki. Provide a value for each of the compounds that follow.
Answers are plain numbers, in nM.

Example results:
- COMPOUND: "C[C@@H]1OC(=O)[C@H]2C[C@H]3CCCC[C@@H]3[C@@H](/C=C/[C@H]3CCC[C@H](C)N3C)[C@@H]12 [HIMBACINE]"
  OUTPUT UNIT: "nM"
  EXPERIMENTAL RESULT: 12.6
- COMPOUND: "C[C@H]1CCC[C@H](/C=C/[C@H]2[C@H]3COC(=O)[C@H]3C[C@H]3CCCC[C@@H]32)N1C (stereo in doubt; 2)"
  OUTPUT UNIT: "nM"
  EXPERIMENTAL RESULT: 7.94
- COMPOUND: "C[C@H]1CCC[C@H](/C=C/[C@H]2[C@H]3COC(=O)[C@H]3C[C@H]3CCCC[C@@H]32)N1C (stereo in doubt)"
  OUTPUT UNIT: "nM"
  EXPERIMENTAL RESULT: 794

Next compound, please.
Inquiry: Report Ki from UniProt P10980 testing of C[C@H]1CCC[C@H](/C=C/[C@@H]2[C@H]3COC(=O)[C@H]3C[C@H]3CCCC[C@@H]32)N1C (stereo in doubt; 3)
Reply text: 398

----------
Give measured Ki for each item. Keep answers brief.
ASSAYED TARGET: Muscarinic acetylcholine receptor M1 (Rattus norvegicus)
Sequence (P08482 whole entry): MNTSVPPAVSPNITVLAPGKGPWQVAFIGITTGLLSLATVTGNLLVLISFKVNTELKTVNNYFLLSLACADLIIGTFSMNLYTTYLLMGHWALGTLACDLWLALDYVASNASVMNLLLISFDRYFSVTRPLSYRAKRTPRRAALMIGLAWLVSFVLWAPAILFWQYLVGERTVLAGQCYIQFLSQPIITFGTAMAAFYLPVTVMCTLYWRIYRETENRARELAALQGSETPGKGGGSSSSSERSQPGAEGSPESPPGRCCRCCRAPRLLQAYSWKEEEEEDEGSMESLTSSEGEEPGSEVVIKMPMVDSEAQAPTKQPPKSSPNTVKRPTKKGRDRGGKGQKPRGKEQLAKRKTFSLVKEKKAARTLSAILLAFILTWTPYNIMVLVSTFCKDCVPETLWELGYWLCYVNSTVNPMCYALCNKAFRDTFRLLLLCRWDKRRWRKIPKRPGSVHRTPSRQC
Answers are plain numbers, in nM.

Solved entries:
- COMPOUND: "C[C@H]1CCC[C@H](/C=C/[C@@H]2[C@H]3COC(=O)[C@H]3C[C@H]3CCCC[C@@H]32)N1C (stereo in doubt)"
  OUTPUT UNIT: "nM"
  Ki: 501
- COMPOUND: "C[C@H]1CCC[C@H](/C=C/[C@@H]2[C@H]3COC(=O)[C@H]3C[C@H]3CCCC[C@@H]32)N1C (stereo in doubt; 3)"
  OUTPUT UNIT: "nM"
  Ki: 631
- COMPOUND: "C[C@H]1CCC[C@H](/C=C/[C@H]2[C@H]3COC(=O)[C@H]3C[C@H]3CCCC[C@@H]32)N1C (stereo in doubt; 2)"
  OUTPUT UNIT: "nM"
  Ki: 39.8
- COMPOUND: "C[C@@H]1OC(=O)[C@H]2C[C@H]3CCCC[C@@H]3[C@@H](/C=C/[C@H]3CCC[C@H](C)N3C)[C@@H]12"
  OUTPUT UNIT: "nM"
  Ki: 79.4

Okay, now this compound:
Inquiry: Provide measured Ki value, entry: C[C@H]1CCC[C@H](/C=C/[C@H]2[C@H]3COC(=O)[C@H]3C[C@H]3CCCC[C@@H]32)N1C (stereo in doubt)
Reply text: 1000
